measurement_target: human recombinant P2X7 receptor (Homo sapiens, UniProt Q99572)
Construct: expressed in transfected cells
protocol_summary: YO-PRO assay: P2X7 receptor antagonistic activity in HEK cells stably expressing P2X7
Format: cell-based
experimental_setup: antagonistic activity with respect to the P2X7 receptor, read-out: IC50
property: IC50 (nM)

Previously resolved entries follow.
I have this compound here, Cc1ncc(C(CNC(=O)c2ccc3[nH]ccc3c2Cl)N2CCC(F)(F)CC2)cn1 (single isomer, unassigned) [Example 6] , and I need its recorded IC50.
6.8

I have this compound here, Cc1ncc(C(CNC(=O)c2ccc3[nH]ccc3c2Cl)OC2CCCC2)cn1 (racemic) , and I need its recorded IC50.
32

I have this compound here, Cc1ncc(C(CNC(=O)c2ccc3[nH]ccc3c2Cl)N2CC(C)OC(C)C2)cn1 (single isomer, unassigned) [Example 41] , and I need its recorded IC50.
651

I have this compound here, O=C(NCC(c1ccc(F)cn1)N1CCCCC1)c1ccc2[nH]ccc2c1Cl (racemic) , and I need its recorded IC50.
232

I have this compound here, Cc1ncc(C(CNC(=O)c2cc(OCCO)c3[nH]ccc3c2Cl)N2CCOCC2)cn1 (racemic) , and I need its recorded IC50.
21

1: O=C(NCC(c1c(F)cc(F)cc1F)N1CCCCC1)c1ccc2[nH]ccc2c1Cl (racemic)
2: Cc1ccc(C(CNC(=O)c2ccc3[nH]ccc3c2Cl)N2CCCCC2)cc1 (racemic)
Between 1 and 2 , whose measured IC50 reads higher? Reply briefly: the label of your chosen item.
1

---

measurement_target: human recombinant P2X7 receptor (Homo sapiens)
Construct: expressed in transfected cells
protocol_summary: YO-PRO assay: P2X7 receptor antagonistic activity in HEK cells stably expressing P2X7
Type: cell-based
experimental_setup: antagonistic activity with respect to the P2X7 receptor, read-out: IC50
property: IC50 (µM)

Previously resolved entries follow.
Form entry - test system: human recombinant P2X7 receptor (Homo sapiens); read-out: IC50; compound: Cc1ncc(C(CNC(=O)c2ccc3[nH]ccc3c2Cl)N2CCS(=O)(=O)CC2)cn1 (racemic) [Example 92]
0.098

Form entry - test system: human recombinant P2X7 receptor (Homo sapiens); read-out: IC50; compound: Cc1ncc(C(CNC(=O)c2ccc3[nH]ccc3c2Cl)N2CCCCC2)cn1 (racemic) [Example 16]
0.0097

a: Cc1ncc(C(CNC(=O)c2ccc3[nH]ccc3c2Cl)N(C)Cc2ccccc2)cn1 (racemic) [Example 87]
b: O=C(NCC(c1ccc(F)cc1F)N1CCOCC1)c1ccc2[nH]ccc2c1Cl (racemic) [Example 34]
c: Cc1ncc(C(CNC(=O)c2ccc3[nH]ccc3c2Cl)N2CC(C)OC(C)C2)cn1 (single isomer, unassigned) [Example 42]
d: O=C(NCC(c1ccccc1F)N1CCOCC1)c1ccc2[nH]ccc2c1Cl (racemic) [Example 35]
e: O=C(NCC(c1ccc(C(F)(F)F)cc1)N1CCCCC1)c1ccc2[nH]ccc2c1Cl (racemic) [Example 44]
Which order do these items take when sorted by rising IC50? List them. # respond with the labels, arranged in the requested order
c, b, d, e, a
(c: 0.036 µM, b: 0.061 µM, d: 0.161 µM, e: 0.889 µM, a: 2.65 µM)

---

measurement_target: human recombinant P2X7 receptor (Homo sapiens)
Construct: expressed in transfected cells
protocol_summary: YO-PRO assay: P2X7 receptor antagonistic activity in HEK cells stably expressing P2X7
Type: cell-based
experimental_setup: antagonistic activity with respect to the P2X7 receptor, read-out: IC50
property: IC50 (nM)

Previously resolved entries follow.
I have this compound here, CCC(CC)OC(CNC(=O)c1ccc2[nH]ccc2c1Cl)c1cnc(C)nc1 (racemic) [Example 71] , and I need its recorded IC50.
22

I have this compound here, O=C(NCC(c1ccc(F)cn1)N1CCOCC1)c1ccc2[nH]ccc2c1Cl (racemic) [Example 36] , and I need its recorded IC50.
265

1: CC(=O)c1cc(C(=O)NCC(c2cnc(C)nc2)N2CCOCC2)c(Cl)c2cc[nH]c12 (racemic) [Example 102]
2: COc1ccc(C(CNC(=O)c2ccc3[nH]ccc3c2Cl)N2CCOCC2)cc1 (racemic) [Example 59]
Between the entries labeled 1 and 2 , whose measured IC50 is lower? Reply briefly: the label of your chosen item.
1

---

measurement_target: human recombinant P2X7 receptor (Homo sapiens)
Construct: expressed in transfected cells
Sequence (Q99572 1-595): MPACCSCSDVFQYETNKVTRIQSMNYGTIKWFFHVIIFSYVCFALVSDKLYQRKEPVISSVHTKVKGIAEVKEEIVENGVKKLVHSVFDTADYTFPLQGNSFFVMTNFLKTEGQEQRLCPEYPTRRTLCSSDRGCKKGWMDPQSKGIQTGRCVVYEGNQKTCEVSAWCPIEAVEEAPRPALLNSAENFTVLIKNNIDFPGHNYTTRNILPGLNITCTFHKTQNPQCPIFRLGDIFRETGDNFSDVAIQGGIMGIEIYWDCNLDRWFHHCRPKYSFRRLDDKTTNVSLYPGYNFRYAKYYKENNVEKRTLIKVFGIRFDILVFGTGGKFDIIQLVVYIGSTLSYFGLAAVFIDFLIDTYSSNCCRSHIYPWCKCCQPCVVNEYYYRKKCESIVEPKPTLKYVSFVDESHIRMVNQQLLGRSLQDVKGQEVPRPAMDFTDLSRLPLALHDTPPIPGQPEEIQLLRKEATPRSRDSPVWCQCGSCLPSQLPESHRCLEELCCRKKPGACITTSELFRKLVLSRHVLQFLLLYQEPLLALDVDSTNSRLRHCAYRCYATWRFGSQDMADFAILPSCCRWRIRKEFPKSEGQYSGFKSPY
protocol_summary: YO-PRO assay: P2X7 receptor antagonistic activity in HEK cells stably expressing P2X7
Type: cell-based
experimental_setup: antagonistic activity with respect to the P2X7 receptor, read-out: IC50
property: IC50 (nM)

Previously resolved entries follow.
Form entry - test system: human recombinant P2X7 receptor (Homo sapiens); read-out: IC50; molecule: Cc1ncc(C(CNC(=O)c2c(Cl)cc3[nH]ccc3c2Cl)N2CCOCC2)cn1 (racemic)
211

Form entry - test system: human recombinant P2X7 receptor (Homo sapiens); read-out: IC50; molecule: Cc1ncc(C(CNC(=O)c2ccc3[nH]ccc3c2Cl)N2CCC(C)CC2)cn1 (racemic)
348

Form entry - test system: human recombinant P2X7 receptor (Homo sapiens); read-out: IC50; molecule: Cc1ncc(C(CNC(=O)c2ccc3[nH]ccc3c2Cl)C2CCOCC2)cn1 (racemic)
16

Form entry - test system: human recombinant P2X7 receptor (Homo sapiens); read-out: IC50; molecule: Cc1ncc(C(CNC(=O)c2ccc3[nH]ccc3c2Cl)N2CCC2)cn1 (racemic)
831

Form entry - test system: human recombinant P2X7 receptor (Homo sapiens); read-out: IC50; molecule: O=C(NCC(c1ccc(F)cc1)N1CCOCC1)c1ccc2[nH]ccc2c1Cl (racemic)
9.2

A: Cc1noc(C)c1C(CNC(=O)c1ccc2[nH]ccc2c1Cl)N1CCCCC1 (racemic)
B: Cc1ncc(C(CNC(=O)c2ccc3[nH]ccc3c2Cl)N2CCCCCC2)cn1 (racemic)
Between A and B , whose measured IC50 reads higher? Reply briefly: the label of your chosen item.
A
(A: 1850 nM, B: 25 nM)

---

measurement_target: human recombinant P2X7 receptor (Homo sapiens)
Construct: expressed in transfected cells
Sequence (Q99572 1-595): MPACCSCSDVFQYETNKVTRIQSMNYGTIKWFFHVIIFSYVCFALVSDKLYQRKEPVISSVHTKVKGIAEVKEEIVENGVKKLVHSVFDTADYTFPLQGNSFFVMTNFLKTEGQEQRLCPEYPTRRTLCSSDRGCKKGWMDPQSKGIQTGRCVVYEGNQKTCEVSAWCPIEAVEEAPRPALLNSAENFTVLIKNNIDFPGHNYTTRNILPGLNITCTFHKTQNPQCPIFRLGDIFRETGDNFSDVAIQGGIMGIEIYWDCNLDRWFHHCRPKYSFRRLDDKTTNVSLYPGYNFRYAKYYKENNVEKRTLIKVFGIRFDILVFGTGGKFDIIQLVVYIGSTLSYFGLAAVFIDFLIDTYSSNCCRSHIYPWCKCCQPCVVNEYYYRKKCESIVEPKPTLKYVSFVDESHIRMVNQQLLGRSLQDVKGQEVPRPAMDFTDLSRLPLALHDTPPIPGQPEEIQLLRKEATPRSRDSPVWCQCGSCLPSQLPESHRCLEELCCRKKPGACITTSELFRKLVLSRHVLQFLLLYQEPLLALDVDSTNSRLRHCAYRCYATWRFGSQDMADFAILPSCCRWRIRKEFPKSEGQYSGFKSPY
protocol_summary: YO-PRO assay: P2X7 receptor antagonistic activity in HEK cells stably expressing P2X7
Assay type: cell-based
experimental_setup: antagonistic activity with respect to the P2X7 receptor, read-out: IC50
pIC50: −log10 of the molar value.
property: pIC50

I have this compound here, O=C(NCC(c1ccnc(O)c1)N1CCOCC1)c1ccc2[nH]ccc2c1Cl (racemic) , and I need its recorded pIC50.
6.45

I have this compound here, O=C(NCC(c1c(F)cc(F)cc1F)N1CCOCC1)c1ccc2[nH]ccc2c1Cl (racemic) , and I need its recorded pIC50.
6.52

I have this compound here, CC(=O)N1CCC(C(CNC(=O)c2ccc3[nH]ccc3c2Cl)c2cccnc2)CC1 (racemic) , and I need its recorded pIC50.
6.90

I have this compound here, Cc1ncc(C(CNC(=O)c2ccc3[nH]ccc3c2Cl)N2CCCC2)cn1 (racemic) , and I need its recorded pIC50.
6.54

I: Cc1ncc(C(CNC(=O)c2ccc3[nH]ccc3c2Cl)N2CCOCC2)cn1 (single isomer, unassigned) [Example 4]
II: O=C(NCC(c1ccc(Cl)cc1)N1CCOCC1)c1ccc2[nH]ccc2c1Cl (racemic)
Between the entries labeled I and II , whose measured pIC50 is lower? Reply briefly: the label of your chosen item.
II

A: Cc1ncc(C(CNC(=O)c2cc(C)c3[nH]ccc3c2C)N2CCOCC2)cn1 (racemic)
B: CCOC(CNC(=O)c1ccc2[nH]ccc2c1Cl)c1cnc(C)nc1 (racemic)
C: Cc1ncc(C(CNC(=O)c2cc(F)c3[nH]ccc3c2F)N2CCOCC2)cn1 (racemic)
Rank by pIC50 (largest to smallest). # respond with the labels, arranged in the requested order
A, C, B
(A: 7.46, C: 6.93, B: 6.20)

P: O=C(NCC(c1ccc(C(F)(F)F)cc1)N1CCOCC1)c1ccc2[nH]ccc2c1Cl (racemic)
Q: O=C(NCC(c1ccc(C(F)(F)F)nc1)N1CCOCC1)c1ccc2[nH]ccc2c1Cl (racemic)
R: Cc1ccc(C(CNC(=O)c2ccc3[nH]ccc3c2Cl)N2CCOCC2)cc1 (racemic)
S: Cc1ncc(C(CNC(=O)c2ccc3[nH]ccc3c2Cl)N(C)C)cn1 (racemic)
Rank by pIC50 (largest to smallest). # respond with the labels, arranged in the requested order
Q, P, R, S

I: O=C(NCC(c1cnc(C2CC2)nc1)N1CCOCC1)c1ccc2[nH]ccc2c1Cl (racemic)
II: O=C(NCC(c1ccc(Oc2ccccc2)cc1)N1CCCCC1)c1ccc2[nH]ccc2c1Cl (racemic)
Between the entries labeled I and II , whose measured pIC50 is lower? Reply briefly: the label of your chosen item.
II
